The measured values listed here are drawn from a melting point compilation (Tetko et al.; mined from patent text by program, amines drawn as free bases though some values may be those of a salt).

Parameter measured: melting point

Sample answers from the record:
1) CC(=O)NC(=Cc1ccccc1)C1=NC(=Cc2ccc(C)s2)C(=O)O1 : 193 to 194 °C
2) COc1ccc2c(c1)CCC1C2CCC2(C)C(=NNS(=O)(=O)c3ccccc3)CCC12 (stereo not given) : 183 to 185 °C
3) Cc1nccc(N2CCC(O)(CN3CCN(C(=O)c4ccc(F)cc4)CC3)CC2)n1 : 114 to 117 °C
4) COC(=O)c1ccc(C2CCC(=O)CC2)cc1 : 91 to 92 °C

get_value(item= CNC(=O)c1cn(-c2cc3c(=O)n(NS(C)(=O)=O)c(=O)[nH]c3cc2C(F)(F)F)cn1 , readout=melting point) returns 292 to 295 °C

get_value(item= CC(C)NC(=O)n1nc(Oc2c(Cl)cc(C(F)(F)F)cc2Cl)cc1C(Cl)(Cl)Cl , readout=melting point) returns 105 to 106 °C

get_value(item= Cc1cc(NCCOC(=O)c2ccccc2)c2[nH]ncc2n1 , readout=melting point) returns 136 to 138 °C

get_value(item= CC1(C)Cc2ccccc2CC(C)(C)C1O , readout=melting point) returns 66 to 68 °C

get_value(item= O=C1CC(c2cccc(-c3nc(CO)cs3)c2)=Nc2ccc(-n3cccc3)cc2N1 , readout=melting point) returns 238 to 240 °C

###

Parameter measured: melting point

Sample answers from the record:
1. CC1(C)Oc2ccc(S(=O)(=O)C(F)(F)F)cc2[C@@H](N2Cc3c(cccc3[N+](=O)[O-])C2=O)[C@@H]1O (relative stereo) : 292 to 295 °C
2. COc1ccc2c(c1)c(CNc1ccccc1Oc1ccc(Cl)cc1)cn2C(C)=O : 140 to 141 °C
3. O=S1(=O)CCC(c2ccccc2)(c2ccccc2)[C@@H]2CN(Cc3ccccc3)C[C@@H]21 (racemic) : 186 °C
4. CC1=NN=C(c2ccc(NC(=O)CN(C)C)cc2)c2cc3c(cc2C1)OCO3 : 211 to 213 °C
5. NCCC1CCc2ccc3c(c21)NC(=O)CO3 (stereo not given) : 128 to 134 °C

get_value(item= Fc1ccc(-c2[nH]cc(CCCN3CCNCC3)c2-c2ccncc2)cc1 , readout=melting point) returns 162 to 164 °C

get_value(item= CC(=O)OC1CCC2(C)C3=C(CCC2C1)C1CCC(C(C)=O)C1(C)CC3=O (stereo not given) , readout=melting point) returns 169 to 172 °C

###

The following compounds are listed with their measured melting point values.

1. Cc1ncsc1C(O)c1cccc(N(C)C)c1 (centres undefined) : 135 to 138 °C
2. O=C(N(CCCc1c[nH]c2ccccc12)CCOc1cccc2[nH]c(=O)[nH]c12)C(F)(F)F : 180 to 181 °C
3. CC(C)(C)c1cc(NC(=O)NCCCl)cc(C(C)(C)C)c1O : 169 to 171 °C
4. N#CCc1nnc2n1-c1sc(Cl)cc1C(c1ccccc1Cl)=NC2 : 217 to 220 °C
5. NC(=O)C1CCN(C(=O)c2ccc(NCc3cnc4nc(N)nc(N)c4n3)cc2)CC1 : > 300 °C
6. O=C(NCC(F)(F)F)c1cccc(CN2CCN(c3ccc(NC(=O)c4ccccc4-c4ccc(C(F)(F)F)cc4)cc3)CC2)c1 : 205 to 207 °C
7. Cn1c(C(F)(F)F)cc(=O)n(-c2cc(OC(=O)CC#N)c(Cl)cc2F)c1=O : 157 to 160 °C
8. O=C(Nc1ccc(Br)cc1CBr)C(F)(F)F : 133 to 135 °C

Now look at this entry.
get_value(item= OC1(c2ccccc2Cc2cc(F)ccc2F)CCN(Cc2ccccc2)CC1 , readout=melting point) returns 143 to 146 °C
